Cited source: patent US20160185837A1

Biological target: mouse GLP-1 receptor (mGLP-1r) (Mus musculus)
Construct: expressed in transfected cells; host or cells: HEK293s or CHO cells
Sequence (O35659 22-463): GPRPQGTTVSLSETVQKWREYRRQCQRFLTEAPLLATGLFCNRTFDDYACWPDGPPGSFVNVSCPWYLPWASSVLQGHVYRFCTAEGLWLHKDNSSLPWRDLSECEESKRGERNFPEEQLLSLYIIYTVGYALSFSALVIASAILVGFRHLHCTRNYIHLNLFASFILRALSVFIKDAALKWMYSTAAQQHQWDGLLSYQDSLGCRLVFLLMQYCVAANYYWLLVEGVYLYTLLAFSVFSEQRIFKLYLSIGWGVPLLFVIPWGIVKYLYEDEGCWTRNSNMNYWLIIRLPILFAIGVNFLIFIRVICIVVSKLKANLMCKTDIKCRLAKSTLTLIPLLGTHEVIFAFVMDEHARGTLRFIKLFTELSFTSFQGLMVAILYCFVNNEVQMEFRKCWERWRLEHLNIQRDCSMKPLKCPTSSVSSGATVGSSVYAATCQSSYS
Assay: BSA-cAMP assay, cells expressing mouse GLP-1 receptor
Type: cell-based
Conditions: Batch 1; BSA-cAMP assay; read-out: mGLP1r cAMP activity EC50
quantity.measured: EC50

{"columns": ["substance", "reported.value"],
 "data": [
  ["IP343 (YSEGTFTSDYAAAAERQAIDAFAAWLAAAAGGGGGSGGGGSGGGGSGGGGSA)", "> 2070 nM"],
  ["IP368 (YSEGTFTSDYRQAIDRQAIDEFIAWLLKGGGGGGGSGGGGSGGGGSGGGGSACPPC)", "> 4860 nM"],
  ["IP305: Fc fusion, IgG1-TM(ΔK), SEQ ID NO:430; agonist peptide YSEGTFISDYSIALAAAAVRDFVNWLLAGG (YSEGTFISDYSIALAAAAVRDFVNWLLAGGGGGGGSGGGGSGGGGSGGGGSATHTCPPC)", "> 1130 nM"],
  ["IP318: Fc fusion, IgG1-TM(ΔK), SEQ ID NO:432; agonist peptide YSEGTFISDYSIAMDEEAVRDFVEWLKAGG (YSEGTFISDYSIAMDEEAVRDFVEWLKAGGGGGGGSGGGGSGGGGSGGGGSATHTCPPC)", "> 4470 nM"],
  ["IP314: Fc fusion, IgG1-TM(ΔK), SEQ ID NO:431; agonist peptide YSEGTFISDYSKLLAAAAVRDFVNWLLAGG (YSEGTFISDYSKLLAAAAVRDFVNWLLAGGGGGGGSGGGGSGGGGSGGGGSATHTCPPC)", "> 906 nM"],
  ["IP386 (YSEGTFISDYSIAMDKIHQQDFVNWLLAQKGGGGGSGGGGSGGGGSGGGGSACPPC)", "> 16600 nM"],
  ["IP308 (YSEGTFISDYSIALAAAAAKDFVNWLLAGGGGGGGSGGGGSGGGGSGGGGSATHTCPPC)", "> 1520 nM"],
  ["IP335 (YSEGTFISDYSIAMDKIHQQDFVNWLLAQKGGGGGSGGGGSGGGGSGGGGSA)", "> 2740 nM"]
]}

* * *

Target: human glucagon receptor (GCGr) (Homo sapiens)
Construct: expressed in transfected cells; host or cells: HEK293s or CHO cells
Sequence (P47871 26-477): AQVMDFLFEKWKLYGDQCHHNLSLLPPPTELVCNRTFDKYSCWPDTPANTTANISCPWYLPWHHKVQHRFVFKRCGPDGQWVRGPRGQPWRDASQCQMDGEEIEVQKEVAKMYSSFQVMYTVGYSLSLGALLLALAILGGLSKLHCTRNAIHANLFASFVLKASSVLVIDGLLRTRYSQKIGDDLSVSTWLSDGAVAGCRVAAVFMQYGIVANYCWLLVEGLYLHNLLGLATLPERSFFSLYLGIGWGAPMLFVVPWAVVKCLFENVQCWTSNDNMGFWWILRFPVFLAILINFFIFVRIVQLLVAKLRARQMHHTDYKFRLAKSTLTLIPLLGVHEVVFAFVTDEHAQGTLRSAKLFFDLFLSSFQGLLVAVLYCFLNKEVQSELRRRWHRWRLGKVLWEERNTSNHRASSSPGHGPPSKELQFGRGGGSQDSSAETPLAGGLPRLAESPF
Assay: BSA-cAMP assay, cells expressing human glucagon receptor
Assay type: cell-based
Conditions: Batch 1, read-out: hGCGr cAMP activity EC50
Method: One basic cAMP assays was performed, differing in the medium used for the assay, the “BSA-cAMP assay”: BSA-based assay medium: 0.1% bovine serum albumin (BSA) in […] cAMP levels were measured using a commercially available cAMP dynamic 2 HTRF kit (Cisbio, Cat #62AM4PEJ), following the two step protocol as per manufacturer's recommendations. […]
pEC50: −log10 of the molar value.
quantity.measured: pEC50

{"columns": ["substance", "reported.value"],
 "data": [
  ["IP318: Fc fusion, IgG1-TM(ΔK), SEQ ID NO:432; agonist peptide YSEGTFISDYSIAMDEEAVRDFVEWLKAGG (YSEGTFISDYSIAMDEEAVRDFVEWLKAGGGGGGGSGGGGSGGGGSGGGGSATHTCPPC)", "≤ 5.35"],
  ["IP308 (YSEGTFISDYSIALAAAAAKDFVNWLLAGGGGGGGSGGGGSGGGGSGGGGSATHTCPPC)", "≤ 5.82"],
  ["IP343 (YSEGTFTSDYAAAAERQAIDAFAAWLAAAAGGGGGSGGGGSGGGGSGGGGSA)", "< 5.68"],
  ["IP368 (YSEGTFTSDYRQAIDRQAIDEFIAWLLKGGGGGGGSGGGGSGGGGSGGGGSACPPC)", "< 5.31"],
  ["IP407: Fc fusion, IgG1-TM, SEQ ID NO:384; agonist peptide YSEGTFTSDYSKLLEEEAIRLFIEWLLAGG (YSEGTFTSDYSKLLEEEAIRLFIEWLLAGGGGGGSGGGGSGGGGSGGGGSATHTCPPC)", "< 6.79"],
  ["IP305: Fc fusion, IgG1-TM(ΔK), SEQ ID NO:430; agonist peptide YSEGTFISDYSIALAAAAVRDFVNWLLAGG (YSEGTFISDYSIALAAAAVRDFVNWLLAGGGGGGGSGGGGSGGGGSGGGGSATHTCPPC)", "≤ 5.96"],
  ["IP396 (YSEGTFTSDYSKLLERQAIDEFIAWLLKGGGGGGGSGGGGSGGGGSGGGGSACPPC)", 6.48],
  ["IP311 (YSEGTFISDYSIALAAAAIDDFVNWLLAGGGGGGGSGGGGSGGGGSGGGGSATHTCPPC)", "< 5.62"]
]}
